B1: NR2F2 (parent)
chain: VAHVESLQEKSQCALEEYVRSQYP

Variants of: B1
TEST: protein stability index of a GFP-peptide fusion (GPS, HEK-293T) (PSI 1-6); higher = more stable;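 note: lentivirally expressed fusions sorted by FACS into six bins by GFP to DsRed ratio, PSI derived from sequencing read proportions per bin multiplied by bin number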
MEASUREMENT_CONDITIONS: c terminus: a fixed tail appended
PROPERTY: protein stability index

>>> numeric_readout("Q22L")
3.17
>>> numeric_readout("R20D")
4.71
>>> numeric_readout("S11A")
4.05
>>> numeric_readout("L15T")
4.91
>>> numeric_readout("P24F")
2.62
>>> numeric_readout("P24C")
3.14
>>> numeric_readout("V1R")
3.39
>>> numeric_readout("A14H")
4.08
>>> numeric_readout("A14Q")
3.57
>>> numeric_readout("P24T")
3.5
>>> numeric_readout("P24Y")
2.68
